Kindly state Enzyme degradation CDK9 (% remaining) @ 10 μM for each of the entries shown.
TARGET_OF_ASSAY: CDK9 (Homo sapiens, UniProt P50750)
Construct: endogenous in cells; host or cells: MDA-MB-231
Sequence (P50750 whole entry): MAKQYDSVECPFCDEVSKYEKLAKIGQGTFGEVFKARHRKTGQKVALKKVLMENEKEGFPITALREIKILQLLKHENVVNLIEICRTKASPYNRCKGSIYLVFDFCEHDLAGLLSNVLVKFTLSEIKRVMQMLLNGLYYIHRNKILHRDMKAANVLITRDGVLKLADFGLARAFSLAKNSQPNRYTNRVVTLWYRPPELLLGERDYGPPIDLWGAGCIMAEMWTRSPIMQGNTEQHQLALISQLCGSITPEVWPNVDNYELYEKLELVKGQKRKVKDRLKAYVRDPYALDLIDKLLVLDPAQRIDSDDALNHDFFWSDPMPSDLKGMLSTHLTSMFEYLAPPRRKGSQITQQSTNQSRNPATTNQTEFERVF
TEST_NAME: CDK protein degradation activity (Western blotting), CDK9
Type: cell-based
CONDITION_DESCRIPTION: MDA-MB-231 cells, 10 μM, 16 hours, Western blot

IN: Sample Cc1cccc(C(=O)N[C@H]2C[C@@H](n3cnc4c(NCCC5CCN(CC6CCN(C(=O)COc7ccc8c(c7)C(=O)N([C@H]7CCC(=O)NC7=O)C8=O)CC6)CC5)ncnc43)C2)n1 [Compound 124] — what was its Enzyme degradation CDK9 (% remaining) @ 10 μM?
OUT: 0/0/0%

IN: Sample O=C1CCC(N2C(=O)c3cc(F)c(N4CCC(C(=O)N5CCC(CN6CCC(CCNc7ncnc8c7ncn8[C@H]7C[C@@H](NC(=O)Cc8ccccc8)C7)CC6)CC5)CC4)cc3C2=O)C(=O)N1 (some centres unmarked) [Compound 461] — what was its Enzyme degradation CDK9 (% remaining) @ 10 μM?
OUT: 0%

IN: Sample O=C1CC[C@H](N2C(=O)c3ccc(OCC(=O)N4CCN(CC5CCN(c6ccc(Nc7ncnc8c7ncn8C7CC(NC(=O)c8c(Cl)cccc8Cl)C7)cc6)CC5)CC4)cc3C2=O)C(=O)N1 (some centres unmarked) [Compound 325] — what was its Enzyme degradation CDK9 (% remaining) @ 10 μM?
OUT: 0%

IN: Sample O=C1CCC(N2C(=O)c3cccc(NCC(=O)N4CCC(CN5CCC(c6ccc(Nc7ncnc8c7ncn8[C@H]7C[C@@H](NC(=O)Cc8ccccc8)C7)cc6)CC5)CC4)c3C2=O)C(=O)N1 (some centres unmarked) [Compound 288] — what was its Enzyme degradation CDK9 (% remaining) @ 10 μM?
OUT: 0/0/0%

IN: Sample Cc1cccc(C(=O)N[C@H]2C[C@@H](n3cnc4c(NC5CCN(CCC6CCN(C(=O)CNc7cccc8c7C(=O)N(C7CCC(=O)NC7=O)C8=O)CC6)CC5)ncnc43)C2)n1 (some centres unmarked) [Compound 34] — what was its Enzyme degradation CDK9 (% remaining) @ 10 μM?
OUT: 10%
